Catalogue of MIC values
Test system: Escherichia coli
procedure-details: Synergistic antibacterial activity against wild type Escherichia coli BW25113 assessed as levofloxacin MIC at 32 microg/ml incubated for 18 hrs in presence of colistin by broth dilution assay
Format: functional
condition-label: dose 32 µg/ml
measure-name: MIC (µg/mL)

smiles-entry: CC1(C)CCc2c(C(=O)N3CCOCC3)cc3c(OCCSc4ccc([N+](=O)[O-])cc4)cccc3c2O1
unit-string: µg/mL
measurement: 0.032
--
smiles-entry: CC1(C)CCc2c(C(=O)N3CCOCC3)cc3c(OCCOc4ccc([N+](=O)[O-])cc4)cccc3c2O1
unit-string: µg/mL
measurement: 0.032
--
smiles-entry: COc1ccc(OCCCOc2cccc3c4c(c(C(=O)N5CCOCC5)cc23)CCC(C)(C)O4)cc1
unit-string: µg/mL
measurement: 0.032
--
smiles-entry: CC1(C)CCc2c(C(=O)N3CCOCC3)cc3c(OCCCSc4ccc(N)cc4)cccc3c2O1
unit-string: µg/mL
measurement: 0.016
--
smiles-entry: CC1(C)CCc2c(C(=O)N3CCOCC3)cc3c(OCCCOc4cccc(C(=O)O)c4)cccc3c2O1
unit-string: µg/mL
measurement: 0.016
--
smiles-entry: CC1(C)CCc2c(C(=O)N3CCOCC3)cc3c(OCCN4CCN(c5ccccc5)CC4)cccc3c2O1
unit-string: µg/mL
measurement: 0.032
